Biological target: T1, mouse CD47 (mouse) (UniProt Q61735)
T1 sequence (looked up): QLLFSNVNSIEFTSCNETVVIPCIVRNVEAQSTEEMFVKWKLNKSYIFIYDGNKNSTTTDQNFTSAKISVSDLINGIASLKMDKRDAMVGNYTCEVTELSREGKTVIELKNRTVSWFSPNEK
Assay: ELISA, coated mouse CD47 ECD Fc, supernatant, anti-c-Myc HRP
Outcome Measure: mCD47 binding (OD)

Item 2R-1-4B (designed binder) hSIRPα IgV domain mutant: EEELQVIQPDKSVSVAAGESAILHCTVTSLAPVGPIQWFRGAGPARELIYNQKLDSFPRVTTVSESTKRESMDFSISISNITPADAGTYYCVKFRKGSPDTEFKSGAGTELSVRAKPS has what recorded mCD47 binding (OD)?
0.082

Item 4RP13-4-5C (designed binder) hSIRPα IgV domain mutant: EEELQVIQPDKSVSVAAGESAILNCTVTSLIPVGPIQWFRGAGPARELIYNQKHQTFPRVTTVSEQTKRENRDFSISISNITPADAGTYYCVKFRKGSPDTEFKSGAGTELSVRAKPS has what recorded mCD47 binding (OD)?
0.116

I = 4RP13-5-6G (designed binder) hSIRPα IgV domain mutant: EEELQVIQPDKSVSVAAGESAILRCTVTSLTPVGPIQWFRGAGPARELIYNQKAKQFPRVTTVSESTKRENMIFSISISNITPADAGTYYCVKFRKGSPDTEFKSGAGTELSVRAKPS
II = 2R-1-7B (designed binder) hSIRPα IgV domain mutant: EEELQVIQPDKSVSVAAGESAILHCIVTSLIPVGPIQWFRGAGPARELIYNQKILTFPRVTTVSESTKRENYDFSISISNITPADAGTYYCVKFRKGSPDTEFKSGAGTELSVRAKPS
Could you tell me which of these two has the smaller mCD47 binding (OD) figure? First: I Second: II Answer by quoting the chosen item's label.
II
(II: 0.087 OD, I: 0.149 OD)
